These data points were gathered from ChEMBL document CHEMBL5241131.

# target: Cyclin-dependent kinase 1/cyclin B (Homo sapiens) (UniProt P06493+P14635+Q8WWL7+O95067)
# test.protocol: Inhibition of CDK1/Cyclin B (unknown origin) at 1 uM incubated for 30 to 60 mins presence of dithiothreitol by Cheng-Prusoff equation analysis relative to control
# Assay type: protein-complex assay
# setup.conditions: time 30-60 min
measured.endpoint: inhibition (%)

Example results:
[[record]]
chem_smiles = "Cn1cc(-c2nc(Nc3cccc([N+](=O)[O-])c3)ncc2Cl)cn1"
target = "Cyclin-dependent kinase 1/cyclin B (Homo sapiens) (UniProt P06493+P14635+Q8WWL7+O95067)"
measured_endpoint = "inhibition"
measured = 24

[[record]]
chem_smiles = "Cn1cc(-c2nc(Nc3ccc(C(F)(F)F)c(Cl)c3)ncc2F)cn1"
target = "Cyclin-dependent kinase 1/cyclin B (Homo sapiens) (UniProt P06493+P14635+Q8WWL7+O95067)"
measured_endpoint = "inhibition"
measured = 8

[[record]]
chem_smiles = "Cn1nccc1-c1nc(Nc2cccc(S(N)(=O)=O)c2)ncc1F"
target = "Cyclin-dependent kinase 1/cyclin B (Homo sapiens) (UniProt P06493+P14635+Q8WWL7+O95067)"
measured_endpoint = "inhibition"
measured = 65

[[record]]
chem_smiles = "Cn1cc(-c2nc(Nc3ccc(F)c(C(F)(F)F)c3)ncc2F)cn1"
target = "Cyclin-dependent kinase 1/cyclin B (Homo sapiens) (UniProt P06493+P14635+Q8WWL7+O95067)"
measured_endpoint = "inhibition"
measured = 22

[[record]]
chem_smiles = "Cn1cc(-c2nc(Nc3cccc([N+](=O)[O-])c3)ncc2F)cn1"
target = "Cyclin-dependent kinase 1/cyclin B (Homo sapiens) (UniProt P06493+P14635+Q8WWL7+O95067)"
measured_endpoint = "inhibition"
measured = 54

[[record]]
chem_smiles = "Cn1cc(-c2nc(Nc3ccc(S(=O)(=O)C(F)(F)F)cc3)ncc2F)cn1"
target = "Cyclin-dependent kinase 1/cyclin B (Homo sapiens) (UniProt P06493+P14635+Q8WWL7+O95067)"
measured_endpoint = "inhibition"
measured = 54


A. Cn1cc(-c2nc(Nc3cccc(S(=O)(=O)C(F)(F)F)c3)ncc2F)cn1
B. Nc1cc(-c2cnn(Cc3ccccc3)c2)nc(Nc2cccc(S(N)(=O)=O)c2)n1
C. Cn1cc(-c2cc(N)nc(Nc3cccc(S(N)(=O)=O)c3)n2)cn1
D. Cn1cc(-c2nc(Nc3cccc(S(=O)(=O)C(F)(F)F)c3)ncc2Cl)cn1
Exercise: Give the ascending ranking of the items by reported inhibition. Order the labels as requested and give them as your answer.
Solution: D, C, B, A
